tested on: SR; test: NCI tumour cell line growth inhibition, 48 h
The source made the active and inactive calls. No stated cut-off is given here; in the data, active = GI50 up to about 1.1 µM and inactive = higher.
Observed property: GI50

Record excerpt, results attached:
> print(dat)
                                   compound  observed.property         assay.result
1                  NC(=O)C(=CNC(N)=S)C(N)=O               GI50  > 100 µM (inactive)
2     O=c1c2nc3ccccc3c(=O)n2ncn1-c1ccccc1Cl               GI50  > 100 µM (inactive)
3  C=CCOC(C)n1c(C)cc(=O)n(C(C)OCC=C)c1=O (centres undefined)               GI50  > 100 µM (inactive)

Value of measured GI50 for the entry S=C1N=C2C(=N1)n1c3c(c4ccccc41)CCCC23 (centres undefined) : 72.4 µM (inactive)

* * *

test system: SNB-75; experiment: NCI tumour cell line growth inhibition, 48 h
Calls of active or inactive are those of the source. Rule as the data show it: active = GI50 up to about 1.1 µM and inactive = higher.
Recorded GI50 values for a group of molecules are listed next.

Lab book: GI50 of CCOC(=O)NC(=O)c1cn(CCN2CCN(C(=O)NCCCCCCNC(=O)N3CCN(CCn4cc(C(=O)NC(=O)OCC)c(=O)[nH]c4=O)CC3)CC2)c(=O)[nH]c1=O noted as > 100 µM (inactive)

Per the record, COc1cc(OC)c(OC)cc1/C=C/c1nc2ccccc2s1 has GI50 of 91.4 µM (inactive)

So for CN(C)c1ccc(/C=C2\C[N+](C)(C)C/C(=C\c3ccc(N(C)C)cc3)C2=O)cc1 , the logged GI50 turned out to be 17.1 µM (inactive)

* * *

tested on: SR; assay: NCI tumour cell line growth inhibition, 48 h
Active and inactive are the calls of the source. Rule as the data show it: active = GI50 up to about 1.1 µM and inactive = higher. Where a SMILES comes first, the peptide text is derived from it. [ ]: non-standard residue; d: D form. The star is where a group is joined. Phe(4-NO2) = N[CH](Cc1ccc([N+](=O)[O-])cc1)C(=O)O; Cbz = O=C(OCc1ccccc1)*
Observed property: GI50

Past entries and their recorded results:
Compound	GI50
COc1ccc(/C=N/c2c(O)ccc3ccccc23)cc1OC	> 100 µM (inactive)
CC1=C(C(=O)Nc2ccccc2)C(c2ccc([N+](=O)[O-])cc2)C(C(=O)Nc2ccccc2)=C(C)N1	18.4 µM (inactive)
NNC(=O)/C(=C/c1ccc(Cl)cc1Cl)NC(=O)c1ccccc1	> 100 µM (inactive)
CCOC(=O)c1sc(N)nc1N1CCCC1	> 100 µM (inactive)

Noted for O=c1ncccn1[C@@H]1O[C@H](CO)[C@H](O)C1O (stereo partly specified) : its GI50 reads 43.6 µM (inactive)

GI50 measured on COC(=O)C(=O)c1cc2ccccc2n1S(=O)(=O)c1ccccc1 = > 100 µM (inactive)

response.value for Cc1ccc(C)c(N2C(=O)C(=O)C(c3nc4ccccc4o3)/C(=N/N)C2=O)c1 (stereo unspecified) (field: GI50) = > 100 µM (inactive)

Notebook: CS/C(=N\C(=S)Nc1ccccc1)Nc1ccccc1 , GI50 read as 15.4 µM (inactive)

Measured GI50, CCOC(=O)CCC(NC(=O)OCc1ccccc1)C(=O)NC(CCC(=O)OCC)C(=O)NC(Cc1ccc([N+](=O)[O-])cc1)C(=O)NC(CCC(=O)OCC)C(=O)NC(CCC(=O)OCC)C(=O)OCC (stereo unspecified) (Cbz-E(OEt)E(OEt)[Phe(4-NO2)]E(OEt)E(OEt)-OEt; configuration not given here) : > 100 µM (inactive)

The reported GI50 of the compound CCC[C@@H](O)C[C@@H]1CCC[C@H](C[C@@H](O)CC)N1C was > 100 µM (inactive)

Recorded GI50 (compound COc1ccc(C(=O)/C=C/c2ccc(OCC(=O)N3CCN(c4ccccc4)CC3)cc2)cc1OC ): 2.18 µM (inactive)

Memo: COC(=O)C(Cc1ccccc1)NP(=O)(O)OCC1OC(n2ccc(N)nc2=O)C(O)C1O (stereo unspecified) , reported GI50: 66.1 µM (inactive)

get_value(item= COc1ccc(Oc2nc3ccc(C(F)(F)F)cc3nc2-c2ccccc2)cc1 , readout=GI50) returns 13.1 µM (inactive)

Entry Cc1cccc2c(O)cc(=O)oc12 — recorded GI50 = > 100 µM (inactive)

Documented GI50 of CCC(=O)N/S(=N/S(=O)(=O)c1ccccc1)C(Cl)(Cl)Cl (stereo unspecified) : > 100 µM (inactive)

Measured GI50 of CCCCCCOP(=O)(OCCCCCC)OC(C(=O)OC)C(F)(F)F (stereo unspecified) : > 100 µM (inactive)

* * *

test system: KM12; experiment: NCI tumour cell line growth inhibition, 48 h
Activity calls are given as the source filed them. Cut-off read from the data, not from the text of the source: active = GI50 up to about 1.1 µM and inactive = higher.
// reported GI50 for each item listed

# annotated cases, reported GI50 shown
> print(dat)
                                   compound         assay.result
1  CC(=O)N/C(=C\c1ccc(Cc2nc3c([nH]2)C(=O)c2ccccc2C3=O)cc1)c1nc2c([nH]1)C(=O)c1ccccc1C2=O  > 100 µM (inactive)
2  COC(=O)C(CCCC1(c2ccccc2)OCCO1)C(C)=O (stereo not drawn)  > 100 µM (inactive)

// field: GI50; key: COc1ccc(N2C(=O)C3c4[nH]c5ccc(OCc6ccccc6)cc5c4C4CCC(C(C)C)CC4C3C2=O)cc1 (stereo not drawn) ; value = > 100 µM (inactive)

* * *

test system: K562; assay: NCI tumour cell line growth inhibition, 48 h
The source made the active and inactive calls. Cut-off read from the data, not from the text of the source: active = GI50 up to about 1.1 µM and inactive = higher.
Observed property: GI50

# annotated cases, reported GI50 shown
Compound	GI50
COc1ccc(C(OCC2OC3(COC(c4ccccc4)(c4ccc(OC)cc4)c4ccc(OC)cc4)C(Oc4nc(=O)ccn43)C2O)(c2ccccc2)c2ccc(OC)cc2)cc1 (stereo not given)	> 100 µM (inactive)
CC(C(=O)n1c2ccccc2c2ccccc21)N(c1ccccc1)c1ccccc1 (stereo not given)	16.9 µM (inactive)
O=c1cc(/N=N\c2ccc(Br)cc2)[nH]c(=S)[nH]1	21.7 µM (inactive)
O=c1oc2cc(O)ccc2c(O)c1C(c1ccccc1F)c1c(O)c2ccc(O)cc2oc1=O	25.4 µM (inactive)

Let's switch to this compound now.
Note to self: GI50 recorded for COC1OC(CS(=O)(=O)O)C(O)C(O)C1O (stereo not given) was > 100 µM (inactive)

* * *

tested on: M14; assay: NCI tumour cell line growth inhibition, 48 h
The source made the active and inactive calls. Rule as the data show it: active = GI50 up to about 1.1 µM and inactive = higher.
Write down one outcome, taken from active, inactive

Compound	Assigned label
Cc1ccc(C2SCC(=O)N2NC(=O)c2ccncc2)s1 (centres undefined)	inactive

Call for entry Nc1n[nH]c(N)n1 :
inactive

// outcome(item) with item = NS(=O)(=O)c1cc2c(cc1Cl)NC(C(=O)c1cc(=O)c3ccc(O)cc3o1)=NS2(=O)=O
inactive

Which outcome did this test record for the compound CCOC(=O)C(C)(Cc1ccc(O)cn1)NC(=O)c1ccccc1 (centres undefined) ?
inactive

Please state the recorded outcome for this compound: CCN(CC)CCC/N=c1\c2cc(OC)ccc2[nH]c2c([N+](=O)[O-])ccc(NCCCN(CC)CC)c12
inactive

Recorded test call requested for COc1cc2ccc(CC(N)=O)cc2cc1OC
inactive

Which outcome was entered for the compound COC(=O)C(=O)c1cc2ccccc2n1S(=O)(=O)c1ccccc1 in this test?
inactive

Test call, this compound: Cc1nc2c(=O)n3c4c(cccc4c2o1)CCC3
inactive

Please let me know the test result on file for COc1ccc(N2C(=O)C3c4[nH]c5ccc(OCc6ccccc6)cc5c4C4CCC(C(C)C)CC4C3C2=O)cc1 (centres undefined) .
inactive

Can you look up the reported call for C=C1C(=O)O[C@H]2C[C@@]3(C)[C@H](O)CCC(=C)[C@@H]3[C@@H](OC(C)=O)[C@H]12 for me?
inactive

* * *

Listed here: items and their measured GI50.
system: A498; test: NCI tumour cell line growth inhibition, 48 h
Activity calls are given as the source filed them. Cut-off read from the data, not from the text of the source: active = GI50 up to about 1.1 µM and inactive = higher.

> print(dat)
                                    compound         assay.result
 1  N#C[C@H](C(=O)c1ccccc1F)c1nc2ccccc2[nH]1   87.9 µM (inactive)
 2     O=c1c2nc3ccccc3c(=O)n2ncn1-c1ccccc1Cl  > 100 µM (inactive)
 3       O=C1C(CO)=C(CO)C(=O)c2c(O)ccc(O)c21   1.69 µM (inactive)
 4  CC(=C(C(=O)O)C(=O)O)c1cc(-c2cccs2)cc(-c2ccc(Cl)cc2)c1O     16 µM (inactive)
 5  CCCCCCCCCCCOCCC1C(C(C)OCCN2CCCC2)OC2OC(C)(C)OC21 (configuration not stated)     13 µM (inactive)
 6                       CCOC(=O)C#Cc1ccccc1   21.3 µM (inactive)
 7           Cc1nc2c(=O)n3c4c(cccc4c2o1)CCC3  > 100 µM (inactive)
 8                 Cc1nc2ccccc2n1Cc1nnc(N)o1  > 100 µM (inactive)
 9                   O=C1CNC(=O)c2[nH]cnc2N1  > 100 µM (inactive)
10  c1ccc(C2CC(NC3CCCCC3)=Nc3ccccc3N2)cc1 (configuration not stated)   18.8 µM (inactive)

Memo: Cc1ccc(Cc2nn(C)c(=O)n2N)cc1 , reported GI50: > 100 µM (inactive)
